What Ki was measured for each of the following?
- Measured Target: UniProt P11229
- Sequence (P11229 whole entry): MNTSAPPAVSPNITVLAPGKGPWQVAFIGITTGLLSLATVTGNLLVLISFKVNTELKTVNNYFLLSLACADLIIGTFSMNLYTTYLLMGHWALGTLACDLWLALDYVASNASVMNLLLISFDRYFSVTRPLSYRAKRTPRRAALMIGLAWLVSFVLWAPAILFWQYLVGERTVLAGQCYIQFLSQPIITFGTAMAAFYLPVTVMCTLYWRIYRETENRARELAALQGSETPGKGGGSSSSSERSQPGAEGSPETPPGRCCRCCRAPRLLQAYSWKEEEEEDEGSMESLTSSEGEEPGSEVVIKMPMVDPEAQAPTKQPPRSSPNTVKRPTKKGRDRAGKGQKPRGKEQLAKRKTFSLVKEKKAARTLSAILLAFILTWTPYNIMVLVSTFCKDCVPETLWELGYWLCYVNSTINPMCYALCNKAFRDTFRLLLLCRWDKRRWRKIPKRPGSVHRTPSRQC
- Assay Overview: Radioligand (tritiated N-methylscopolamine) binding assay, M1
- Experimental Conditions: CHO cell membranes expressing human M1; 1.5 nM tritiated N-methylscopolamine; 90 min, 37° C.; read-out: Ki against M1 receptor (Table 21, M1)
- Description: Binding affinity (Ki) of compounds was measured by inhibition of radioligand binding to membranes from CHO cells expressing human M1, M2, M3, M4 and M5 receptors. […] Harvesting and radioactivity counting was conducted as previously described (see, e.g., Hoare et al., Mol. Pharmacol. 2003 63(3):751-65); Erratum at Mol. Pharmacol. 2005 July; 68(1): 260).

In the examples that follow, each entry is paired with its recorded Ki.
> print(dat)
                                   compound     test.result
1  O=C(NCCC1(O)CCN(Cc2ccccc2)CC1)C1CCN(c2ccc(OC(F)(F)F)c(F)c2)CC1 [9-72]  100 to 1000 nM
2  C[C@@H]1CN(c2ncc(C#N)cn2)C[C@@H](C)N1C(=O)NCCC1CCN(Cc2ccccc2)CC1       > 1000 nM
3  C[C@@H]1CN(c2cc(F)c(C#N)c(F)c2)C[C@H](C)N1C(=O)NCCC1CCN(Cc2ccccc2)CC1  100 to 1000 nM
4  C[C@@H]1CN(c2ncc(Cl)c(N)n2)CCN1C(=O)NCCC1CCN(Cc2ccccc2)CC1       > 1000 nM

Would you be so kind as to report Ki for each listed record?
1. C[C@@H]1CN(c2cc(F)c(F)c(F)c2)CCN1C(=O)NCCC1CCN(Cc2cccs2)CC1
2. C[C@@H]1CN(c2ncc(F)cc2F)C[C@H](C)N1C(=O)NCCC1CCN(Cc2ccccc2)CC1
3. C[C@@H]1CN(c2ccc(OC(F)(F)F)c(C#N)c2)CCN1C(=O)NCCC1CCN(Cc2ccccc2)CC1
4. C[C@@H]1CN(c2ccc(C(F)(F)F)cc2F)CCN1C(=O)NCCC1CCN(Cc2ccccc2)CC1
5. C[C@@H]1CN(c2cc(F)c(F)c(F)c2)CCN1C(=O)NC[C@H](O)C1CCN(Cc2ccccc2)CC1
6. C[C@@H]1CN(c2ccc3c(c2)OC(F)(F)O3)CCN1C(=O)NCCC1CCN(Cc2ccccc2)CC1
7. O=C(NCCC1CCN(Cc2ccccc2)CC1)C1CCN(c2cc(F)c(F)c(F)c2)CC1
8. N#Cc1cc(N2CCC(C(=O)NCCC3(O)CCN(Cc4ccccc4)CC3)CC2)ccc1OC(F)(F)F

Ans.
1. 100 to 1000 nM
2. 100 to 1000 nM
3. 100 to 1000 nM
4. 100 to 1000 nM
5. > 1000 nM
6. 100 to 1000 nM
7. > 1000 nM
8. > 1000 nM

Here are 7 compounds. What values of Ki were reported for them?
1. C[C@@H]1CN(c2ccc(C#N)c(F)c2)CCN1C(=O)NCCC1CCN(Cc2ccccc2)CC1
2. C[C@@H]1CN(c2ccc(OC(F)(F)F)c(C#N)c2)CCN1C(=O)NC[C@H](O)C1CCN(Cc2ccccc2)CC1
3. Cc1c(C(=O)NCCC2CCN(Cc3ccccc3)CC2)cnc2cc(-c3ccc(F)cc3F)nn12
4. O=C(NCCC1(O)CCN(Cc2ccccc2)CC1)C1CCN(c2ccc(OC(F)(F)F)c(F)c2)CC1 [9-9]
5. C[C@@H]1CN(c2ccc(C#N)c(F)c2)C[C@H](C)N1C(=O)NCCC1CCN(Cc2ccccc2)CC1
6. O=C(NCCC1CCN(Cc2ccccc2)CC1)c1ccc(-c2ccc(OC(F)(F)F)cc2)cc1F
7. C[C@@H]1CN(c2ncc(Cl)cn2)C[C@H](C)N1C(=O)NCCC1CCN(Cc2ccccc2)CC1

Ans.
1: 100 to 1000 nM; 2: > 1000 nM; 3: > 1000 nM; 4: 100 to 1000 nM; 5: > 1000 nM; 6: 100 to 1000 nM; 7: > 1000 nM

I have 3 compounds here; please give me Ki for each one.
1. C[C@@H]1CN(c2nccc(C(F)(F)F)n2)CCN1C(=O)NCCC1CCN(Cc2ccccc2)CC1
2. C[C@@H]1CN(c2cc(F)c(F)c(F)c2)CCN1C(=O)NCCC1CCN(Cc2ccc(F)cc2)CC1
3. COc1ccc(N2C[C@@H](C)N(C(=O)NCCC3CCN(Cc4ccccc4)CC3)[C@@H](C)C2)cc1C#N

Ans.
["> 1000 nM", "100 to 1000 nM", "100 to 1000 nM"]

* * *

- Measured Target: human M5 receptor (Homo sapiens (Human), UniProt P08912)
- Sequence (P08912 whole entry): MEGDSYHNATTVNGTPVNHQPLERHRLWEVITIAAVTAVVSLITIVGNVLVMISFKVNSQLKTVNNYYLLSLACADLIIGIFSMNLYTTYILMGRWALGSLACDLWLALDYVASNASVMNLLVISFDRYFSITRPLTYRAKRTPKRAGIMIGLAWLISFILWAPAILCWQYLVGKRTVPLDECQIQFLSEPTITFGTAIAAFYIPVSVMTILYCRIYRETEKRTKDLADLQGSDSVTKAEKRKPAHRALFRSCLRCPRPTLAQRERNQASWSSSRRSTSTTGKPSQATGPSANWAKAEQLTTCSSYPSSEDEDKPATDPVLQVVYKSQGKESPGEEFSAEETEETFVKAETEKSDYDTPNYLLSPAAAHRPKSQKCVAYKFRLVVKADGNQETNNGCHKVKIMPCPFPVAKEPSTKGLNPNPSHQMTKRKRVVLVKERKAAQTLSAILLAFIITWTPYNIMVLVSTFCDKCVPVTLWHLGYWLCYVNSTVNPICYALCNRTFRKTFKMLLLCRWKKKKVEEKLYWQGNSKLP
- Assay Overview: Radioligand (tritiated N-methylscopolamine) binding assay, M5
- Experimental Conditions: CHO cell membranes expressing human M5; 1.5 nM tritiated N-methylscopolamine; 90 min, 37° C.; read-out: Ki against M5 receptor (Table 21, M5)
Parameter: Ki

Worked cases, answers included:
> print(dat)
                                   compound     test.result
1  C[C@@H]1CN(c2cc(F)c(F)c(F)c2)CCN1C(=O)NCCC1CCN(Cc2ccc(O)cc2)CC1       > 1000 nM
2  C[C@@H]1CN(c2ncc(C#N)cn2)C[C@H](C)N1C(=O)NCCC1CCN(CC[Si](C)(C)C)CC1  100 to 1000 nM
3  O=C(NCCC1CCN(Cc2ccccc2)CC1CO)C1CCN(c2ccc(OC(F)(F)F)cc2)CC1 (stereo not shown)       > 1000 nM

I have 8 compounds here; please give me Ki for each one.
1. N#Cc1cc(N2CCC(C(=O)NC[C@@H](O)C3CCN(Cc4ccccc4)CC3)CC2)ccc1F
2. C[C@@H]1CN(c2ccc(C#N)c(OC(F)(F)F)c2)CCN1C(=O)NCCC1CCN(Cc2ccccc2)CC1
3. N#Cc1cc(N2CCC(C(=O)NCCC3CCN(Cc4ccccc4)CC3)CC2)ccc1OC(F)(F)F
4. C[C@@H]1CN(c2ncc(F)cc2F)C[C@H](C)N1C(=O)NCCC1CCN(Cc2ccccc2)CC1
5. O=C(NCCC1(CO)CCN(Cc2ccccc2)CC1)C1CCN(c2ccc(OC(F)(F)F)c(F)c2)CC1
6. C[C@@H]1CN(C(=O)NCCC2CCN(Cc3ccccc3)CC2)CCN1c1ccc(OC(F)(F)F)c(F)c1
7. C[C@H]1CN(c2ccc(F)c(C#N)c2)CCN1C(=O)NCCC1CCN(Cc2ccccc2)CC1
8. C[C@@H]1CN(c2ccc(C#N)c(F)c2)CCN1C(=O)NCCC1CCN(Cc2ccccc2)CC1

Ans.
1: > 1000 nM; 2: 100 to 1000 nM; 3: > 1000 nM; 4: 100 to 1000 nM; 5: > 1000 nM; 6: 100 to 1000 nM; 7: > 1000 nM; 8: 100 to 1000 nM

* * *

- Measured Target: human M4 receptor (Homo sapiens (Human), UniProt P08173)
- Sequence (P08173 whole entry): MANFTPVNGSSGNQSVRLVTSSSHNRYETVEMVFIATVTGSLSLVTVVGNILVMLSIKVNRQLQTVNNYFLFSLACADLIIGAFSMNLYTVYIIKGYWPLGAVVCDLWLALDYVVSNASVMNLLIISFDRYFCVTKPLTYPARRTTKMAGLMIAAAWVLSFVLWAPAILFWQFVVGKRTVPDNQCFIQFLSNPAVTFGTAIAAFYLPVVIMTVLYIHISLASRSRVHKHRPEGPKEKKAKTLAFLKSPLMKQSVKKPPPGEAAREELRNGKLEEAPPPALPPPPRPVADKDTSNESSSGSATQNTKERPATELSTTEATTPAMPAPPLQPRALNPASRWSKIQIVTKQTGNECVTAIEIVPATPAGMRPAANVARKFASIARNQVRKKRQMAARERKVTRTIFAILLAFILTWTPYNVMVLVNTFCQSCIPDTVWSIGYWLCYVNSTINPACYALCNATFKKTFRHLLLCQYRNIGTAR
- Assay Overview: Radioligand (tritiated N-methylscopolamine) binding assay, M4
- Experimental Conditions: Ki against the M4 receptor; membranes from CHO cells expressing human M4; tritiated N-methylscopolamine 1.5 nM; read-out: Ki
Would you kindly list Ki for each of these molecules?

Take a look at these entries with their results.
> print(dat)
                                test.smiles                           measured.target  parameter     test.result
1  Cc1cc(C(=O)NC2CC2)nc(N2CCN(C(=O)NCCC3CCN(Cc4ccccc4)CC3)[C@H](C)C2)n1  human M4 receptor (Homo sapiens (Human), UniProt P08173)         Ki  100 to 1000 nM
2  O=C(NCCC1CCN(Cc2ccccc2)CC1)C1CCN(c2ccccc2OC(F)(F)F)CC1  human M4 receptor (Homo sapiens (Human), UniProt P08173)         Ki  100 to 1000 nM
3  COc1ccccc1CN1CCC(CCNC(=O)N2[C@H](C)CN(c3ncc(C#N)cn3)C[C@@H]2C)CC1  human M4 receptor (Homo sapiens (Human), UniProt P08173)         Ki    10 to 100 nM

Now examine the next entry.
Qu. Consider the molecule shown here: COC1(C(=O)NCCC2CCN(Cc3ccccc3)CC2)CCN(c2cc(C(F)(F)F)ccn2)CC1 What is its recorded Ki?
Ans. 10 to 100 nM

* * *

- Measured Target: UniProt P08173
- Assay Overview: Radioligand (tritiated N-methylscopolamine) binding assay, M4
- Experimental Conditions: Ki against the M4 receptor; membranes from CHO cells expressing human M4; tritiated N-methylscopolamine 1.5 nM; read-out: Ki
Parameter: Ki

The examples below pair each entry with its known result.
> print(dat)
                                test.smiles  measured.target     test.result
1  O=C(NCCC1CCN(Cc2ccccc2)CC1)C1CCN(c2ccc(OC(F)(F)F)c(F)c2)CC1   UniProt P08173         < 10 nM
2  C[C@@H]1CN(c2cc(F)cc(C#N)c2)CCN1C(=O)NCC[C@H]1CCN(Cc2ccccc2)C1   UniProt P08173  100 to 1000 nM
3  O=C(NCCN1CCC(O)(Cc2ccccc2)CC1)c1ccn2cc(-c3ccc(OC(F)(F)F)cc3)nc2c1   UniProt P08173  100 to 1000 nM

Go through the list and state Ki for each entry.
1. C[C@@H]1CN(c2cc(F)cc(F)c2)CCN1C(=O)NCCC1CCN(Cc2ccccc2)CC1
2. C[C@@H]1CN(c2cc(F)c(F)c(F)c2)CCN1C(=O)NC[C@H](O)C1CCN(Cc2ccccc2)CC1
3. C[C@@H]1CN(c2ncc(Br)cn2)CCN1C(=O)NCCC1CCN(Cc2ccccc2)CC1

Ans.
1: < 10 nM; 2: < 10 nM; 3: < 10 nM

Values from patent US11033539B2
